test-system: Prostaglandin E2 receptor EP2 subtype (Homo sapiens)
method-description: EP2 receptor modulators, cAMP readout, primary screen, cell-based, HTRF cAMP, PGE2 stimulation (AID 940);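 note: rat C6 glioma line stably carrying human EP2 under a CMV promoter; the protocol text gives 20 µM as final concentration; 100% = response of wells given 1 µM PGE2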
condition-info: EP2-expressing cells, cAMP HTRF FRET, PGE2 co-stimulation; at 25 µM; active compounds read high
Hit rate of the full screen: of about 260,000 compounds, about 2,200 (0.85%) were called active. The entries come from a sample that favours actives as a whole.
induction overview
property: induction (%)

| compound | test-system | property | measured-number |
| --- | --- | --- | --- |
| CCOC(=O)C1=C(CN2CCCCCC2)NC(=O)NC1c1cccc([N+](=O)[O-])c1 (stereo unspecified) | Prostaglandin E2 receptor EP2 subtype (Homo sapiens) | induction | -9.45 |
| COc1cc2[nH]c(=O)c(C(=O)NCc3ccc4c(c3)OCO4)c(O)c2cc1OC | Prostaglandin E2 receptor EP2 subtype (Homo sapiens) | induction | 4.8 |
| CCOC(=O)C1=C(C)NC(=O)NC1c1ccccc1 (stereo unspecified) | Prostaglandin E2 receptor EP2 subtype (Homo sapiens) | induction | 19 |
| COCC(=O)Nc1nnc(Cc2ccccc2)s1 | Prostaglandin E2 receptor EP2 subtype (Homo sapiens) | induction | -1.1 |
| CCOC(=O)C1=C(CNC2CCCCC2)NC(=O)NC1c1cc(C)ccc1C (stereo unspecified) | Prostaglandin E2 receptor EP2 subtype (Homo sapiens) | induction | 34.3 |
| CC(C)(C)NC(=O)C(=O)NN=C1CCCCCCC1 | Prostaglandin E2 receptor EP2 subtype (Homo sapiens) | induction | 27.3 |
| CCCc1cc(-c2n[nH]c(=S)n2CC)c2ccccc2n1 | Prostaglandin E2 receptor EP2 subtype (Homo sapiens) | induction | 20.9 |
| O=C(CCSc1nc(-c2ccco2)cc(C(F)(F)F)n1)NC1CCCCC1 | Prostaglandin E2 receptor EP2 subtype (Homo sapiens) | induction | -7.93 |
| CN(C)C(=O)CN1N=C(C(C)(C)C)Cn2c(cc3sccc32)C1=O | Prostaglandin E2 receptor EP2 subtype (Homo sapiens) | induction | -24.7 |
| Cc1cc(=O)n2c3c(cccc13)CCC2 | Prostaglandin E2 receptor EP2 subtype (Homo sapiens) | induction | 1.93 |
| C/C(=N\NC(=S)NC(C)C)c1ccc(C(C)(C)C)cc1 | Prostaglandin E2 receptor EP2 subtype (Homo sapiens) | induction | 8.13 |
